# measured-on: T1, serum resistance-associated protein (SRA) from Trypanosoma brucei rhodesiense, recombinant SRA (SEQ ID NO: … (Trypanosoma brucei rhodesiense, UniProt O96637 31-274))
# T1 construct: also called SRA protein
# T1 sequence: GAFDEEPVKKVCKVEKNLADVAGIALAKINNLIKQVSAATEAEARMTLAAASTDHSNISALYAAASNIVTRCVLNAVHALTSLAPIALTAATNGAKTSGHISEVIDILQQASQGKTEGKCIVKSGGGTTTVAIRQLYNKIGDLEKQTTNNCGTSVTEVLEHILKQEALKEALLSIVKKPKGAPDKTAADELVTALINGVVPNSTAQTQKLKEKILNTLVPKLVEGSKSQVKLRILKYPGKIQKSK
# assay-notes: SPR, mAb captured, pH 4.5, 25C; competitor biotin-mutant apoL1 peptide
Could you please mark 1 (yes) for values of % Blocking, Mutant apoL1 peptide below 7% and 0 (no) for values at or above it?

Examples with answers:
{"columns": ["binder", "class"],
 "data": [
  ["H1H10067P (antibody, V domains shown, Fully human antibody with human IgG1 Fc (prefix H1H)) VH: QVQLQESGPGLVKPSQTLSLTCIVSGGSISSGDYYWNWIRQHPGKGLEWIGDIYHSGDTYYNPSLKSRVTISLDTSKNQFSLKLSSLTAADTAVYYCARDRIVATGGGMDVWGQGTTVTVSS VL: DIQMTQSPSTLSASVGDRVTITCRASQSISSWLAWYQRKPGKAPNLLIYRSSSLESGVPSRFSGSGSGTEFTLTISSLQADDFVIYYCQQYNSYPYTFGQGTKLEIK", "1 (yes)"],
  ["H1H10061P (antibody, V domains shown, Fully human antibody with human IgG1 Fc (prefix H1H)) VH: QVQLVESGGGVVQPGNSLRLSCAASGFTFSAYGMHWVRQAPGKGLEWVAVISYDGSNEFYADSVKGRFTIFRDNSKNMLYLQMNSLRVEDTSIYYCAKDRGLGVYYFFYGMDVWGQGTTVTVSS VL: DIVMTQSPDSLVVSLGERATINCKSSQSLLYSSSNNNYLTWYQQKPGRPPKLLIYWASTRESGVPDRFSGSGSGTDFTLTISSLQAEDVAIYYCQQNYITPLTFGGGTKVEIK", "1 (yes)"],
  ["H2aM10285N (antibody, V domains shown, Chimeric antibody, human variable domains and mouse constant domains (mouse Fc, prefix H2aM); also called H2M10285N) VH: QVQLVQSGAEVKKPGSSVKVSCKASGGTFTNFAISWVRQAPGLGLEWMGGIIPFVGTATYEQKFQGRVSITADESTRTAYMELSSLRYDDTAVYYCARWFSGSGGDFDYWGQGTLVTVSS VL: AIQMTQSPSSLSASVGDRVTITCRASQGIGNDLGWYQQRRGTAPKLLIYAASSLQSGVPSRFSGSGSGTDFTLTISSLQPEDFATYYCLQDFTFPRTFGQGTKVEIK", "0 (no)"],
  ["H1H10027P (antibody, V domains shown, Fully human antibody with human IgG1 Fc (prefix H1H)) VH: EVQLVESGGALVQPGRSLTLSCAASGFTFDDYTMHWVRQTPGKGLEWVSGILWNSDNLVYADSVKGRFTISRDNAKNSLYLQMNSLRVEDTALYYCTKEIDYLTLGGNAFDVWGQGTMVTVSS VL: DIQMTQSPSTLSASVGDRITITCRASQNINYWLAWYQQKPGKAPKLLIYKASSLAGGVPSRFSGSGSGTDFTLTINSLQPDDFATYYCQKYNTYSLNFGGGTKVEIK", "1 (yes)"]
]}

I'd appreciate it if you could check whether H1H10031P (antibody, V domains shown, Fully human antibody with human IgG1 Fc (prefix H1H)) VH: EVQLVESGGNVVRPGGSLRLSCSGSGFAFENYGMSWVRQGPGKGLEWVSNINWNGGSLNYVDSVKGRFTISRDNAKNSLYLQMNSLRAEDTALYYCARVIVYGMDVWGQGTTVTVSS VL: DIQMTQSPSSLSASVGDRVTITCRASQGIRNGLGWFQQKPGKAPKRLIYATSSLQSGVPSRFSGSGSGTEFTLTISSLQPEDFATYYCLQSNSYPWTFGQGTKVEIK has % Blocking, Mutant apoL1 peptide smaller than 7%. 1 (yes)

I'd appreciate it if you could check whether H1H10059P (antibody, V domains shown, Fully human antibody with human IgG1 Fc (prefix H1H)) VH: QVQLVQSGAEVKKPGASVKVSCKAAGFTFIGYYIHWVRQAPGQGLEWMGWINSNSGDKDSAPKFQDRVTMTRDTSISTAYMELSRLRSDDTAVYFCAREGYNFGHFDYWGQGTLVTVSS VL: DIVMTQTPLSSPVTLGQPASISCRSSQSLVHSDGNTYLSWLQQRPGQPPRLLIYKISNRLSGVPDRFSGSGAGTDFTLKISRVEGEDVGVYYCMQGTQFPRTFGQGTKVEIK has % Blocking, Mutant apoL1 peptide smaller than 7%. 0 (no)
